Parameter IC50: see the listing below.
# measurement_target: Human immunodeficiency virus type 1 reverse transcriptase (Human immunodeficiency virus 1, UniProt Q72547, P236L)
# protocol_summary: Inhibition of HIV-1 reverse transcriptase (P236L)
Express the result in nM but write the number alone.

Field: example entries. Status: answers known.
Ask: Which value of IC50 has been reported for "COc1cccc(CSc2nc(N)cc(Cl)n2)c1" in the records?
Reply: 160

Ask: Which value of IC50 has been reported for "Nc1cc(Cl)nc(SCC2=CCCc3ccccc32)n1" in the records?
Reply: 600

Ask: Which value of IC50 has been reported for "COC(=O)/C=C/CSc1nc(N)cc(Cl)n1" in the records?
Reply: 930

Ask: Which value of IC50 has been reported for "Nc1cc(Cl)nc(SCc2cc3c(cc2Cl)OCO3)n1" in the records?
Reply: 16

Ask: Which value of IC50 has been reported for "COC(=O)c1cccc(CSc2nc(N)cc(Cl)n2)c1" in the records?
Reply: 230

Ask: Which value of IC50 has been reported for "Nc1cc(Cl)nc(SCc2ccc3ccccc3c2)n1" in the records?
Reply: 150

Next:
Ask: Which value of IC50 has been reported for "CN(C)C(=O)/C=C/CSc1nc(N)cc(Cl)n1" in the records?
Reply: 70

---

# measurement_target: Human immunodeficiency virus type 1 reverse transcriptase (Human immunodeficiency virus 1)
# protocol_summary: Inhibitory activity against HIV-1 reverse transcriptase (wild type) at 10 uM dose
Use inhibition to assign classes; range list: Low (below 30%), Mid (30% to below 70%), High (70% or more)

Ask: Categorize the following entry: "Nc1cc(Cl)nc(SCc2ccc3c(c2)OCO3)n1"
Reply: High

Ask: Categorize the following entry: "Nc1cc(Cl)nc(SCCc2ccccc2)n1"
Reply: Mid

Ask: Categorize the following entry: "CCCNc1cc(Cl)nc(SCc2ccccc2)n1"
Reply: Low

Ask: Categorize the following entry: "Nc1cc(Cl)nc(OCc2ccc3ccccc3c2)n1"
Reply: Mid

Ask: Categorize the following entry: "Clc1cc(N2CCCCC2)nc(SCc2ccccc2)n1"
Reply: Mid

Ask: Categorize the following entry: "Cc1ccccc1CSc1nc(N)cc(Cl)n1"
Reply: Low

Ask: Categorize the following entry: "Nc1cc(Cl)nc(OCc2cccc3ccccc23)n1"
Reply: Low

Ask: Categorize the following entry: "Nc1cc(Cl)nc(SCc2cccc(C(F)(F)F)c2)n1"
Reply: High

Ask: Categorize the following entry: "CCCCCCCCCSc1nc(N)cc(Cl)n1"
Reply: Low

Ask: Categorize the following entry: "CCNC(=O)/C=C/CSc1nc(N)cc(Cl)n1"
Reply: Mid

Next:
Ask: Categorize the following entry: "Nc1cc(Cl)nc(SCc2cccc(Br)c2)n1"
Reply: High

Ask: Categorize the following entry: "COC(=O)c1cccc(CSc2nc(N)cc(Cl)n2)c1"
Reply: High

---

# measurement_target: Human immunodeficiency virus type 1 reverse transcriptase (Human immunodeficiency virus 1)
# protocol_summary: inhibitory activity against HIV-1 reverse transcriptase (wild type
reported_property: IC50 (µM)
Express the result in µM but write the number alone.

Ask: Which value of IC50 has been reported for "Nc1cc(Cl)nc(SCc2cc3c(cc2Cl)OCO3)n1" in the records?
Reply: 0.085

---

# measurement_target: Human immunodeficiency virus type 1 reverse transcriptase (Human immunodeficiency virus 1) (UniProt Q72547)
# protocol_summary: Inhibitory activity against HIV-1 reverse transcriptase (wild type) at 10 uM dose
Each entry gets -1 if its inhibition stays under 10%, and 1 if its inhibition is 10% or above.

Example results:
Ask: Please check the record "Cc1ccc(CSc2nc(N)cc(Cl)n2)cc1" and state if its inhibition is at or above 10%.
Reply: -1

Ask: Please check the record "CCN(CC)C(=O)CSc1nc(N)cc(Cl)n1" and state if its inhibition is at or above 10%.
Reply: 1

Next:
Ask: Please check the record "COC(=O)c1ccc(CSc2nc(N)cc(Cl)n2)cc1" and state if its inhibition is at or above 10%.
Reply: -1

Ask: Please check the record "Clc1cc(Cl)nc(SCc2ccccc2)n1" and state if its inhibition is at or above 10%.
Reply: 1

Ask: Please check the record "Nc1cc(Cl)nc(SCc2ccc(Cl)c(Cl)c2)n1" and state if its inhibition is at or above 10%.
Reply: 1

Ask: Please check the record "Cc1cc(N)nc(SCc2ccccc2)n1" and state if its inhibition is at or above 10%.
Reply: -1

Ask: Please check the record "OCCCNc1cc(Cl)nc(SCc2ccccc2)n1" and state if its inhibition is at or above 10%.
Reply: 1

Ask: Please check the record "Nc1cc(Cl)nc(SCc2cccc3ccccc23)n1" and state if its inhibition is at or above 10%.
Reply: 1

---

# measurement_target: Human immunodeficiency virus type 1 reverse transcriptase (Human immunodeficiency virus 1) (UniProt Q72547)
# protocol_summary: Inhibitory activity against HIV-1 reverse transcriptase (wild type) at 10 uM dose
Each entry gets rule not met if its inhibition stays under 40%, and rule met if its inhibition is 40% or above.

Ask: Please check the record "Nc1cc(C(F)(F)F)nc(SCc2ccc3ccccc3c2)n1" and state if its inhibition is at or above 40%.
Reply: rule met

Ask: Please check the record "Nc1cc(Cl)nc(SCC2CCCCC2)n1" and state if its inhibition is at or above 40%.
Reply: rule not met

Ask: Please check the record "Nc1cc(Cl)nc(SC/C=C/c2ccccc2)n1" and state if its inhibition is at or above 40%.
Reply: rule met

Ask: Please check the record "Clc1cc(-n2ccnc2)nc(SCc2ccc3ccccc3c2)n1" and state if its inhibition is at or above 40%.
Reply: rule not met

Ask: Please check the record "Clc1ccnc(SCc2ccc3ccccc3c2)n1" and state if its inhibition is at or above 40%.
Reply: rule met

Next:
Ask: Please check the record "Nc1cc(Cl)nc(SCC2=Cc3ccccc3CC2)n1" and state if its inhibition is at or above 40%.
Reply: rule met

Ask: Please check the record "CCOC(=O)CCSc1nc(N)cc(Cl)n1" and state if its inhibition is at or above 40%.
Reply: rule not met

Ask: Please check the record "C/C=C/CSc1nc(N)cc(Cl)n1" and state if its inhibition is at or above 40%.
Reply: rule not met

Ask: Please check the record "Clc1cc(NC2CCCCC2)nc(SCc2ccccc2)n1" and state if its inhibition is at or above 40%.
Reply: rule not met

Ask: Please check the record "Cc1cccc(COc2nc(N)cc(Cl)n2)c1" and state if its inhibition is at or above 40%.
Reply: rule not met

Ask: Please check the record "CC1(C)CCC(C)(C)c2cc(CSc3nc(N)cc(Cl)n3)ccc21" and state if its inhibition is at or above 40%.
Reply: rule not met

Ask: Please check the record "N#Cc1cc(N)nc(SCc2ccc3ccccc3c2)n1" and state if its inhibition is at or above 40%.
Reply: rule met

Ask: Please check the record "Nc1cc(Cl)nc(OCc2ccccc2)n1" and state if its inhibition is at or above 40%.
Reply: rule not met

Ask: Please check the record "Nc1cc(Cl)nc(SCc2ccc(-c3ccccc3)cc2)n1" and state if its inhibition is at or above 40%.
Reply: rule not met

Ask: Please check the record "Nc1cc(Cl)nc(SCc2cc3c(cc2Cl)OCO3)n1" and state if its inhibition is at or above 40%.
Reply: rule met

Ask: Please check the record "Nc1cc(Cl)nc(NCc2ccc3ccccc3c2)n1" and state if its inhibition is at or above 40%.
Reply: rule not met

---

# System: Human immunodeficiency virus type 1 reverse transcriptase (Human immunodeficiency virus 1), Q72547 [P236L]
# protocol_summary: Inhibitory activity against HIV-1 reverse transcriptase (P236L) at 10 uM dose
Use inhibition to assign classes; range list: low = under 20%, mid = from 20% up to 60%, high = 60% and over

Example results:
Ask: Categorize the following entry: "Nc1cc(Cl)nc(SCc2cccc(Br)c2)n1"
Reply: high

Ask: Categorize the following entry: Nc1cc(Cl)nc([S+]([O-])Cc2cccc(Br)c2)n1 (centres undefined)
Reply: mid

Ask: Categorize the following entry: "COC(=O)c1ccc(CSc2nc(N)cc(Cl)n2)cc1"
Reply: low

Next:
Ask: Categorize the following entry: "Nc1cc(O)nc(SCc2ccc3ccccc3c2)n1"
Reply: low

Ask: Categorize the following entry: "Nc1cc(Cl)nc(OCc2ccccc2)n1"
Reply: mid

Ask: Categorize the following entry: "Nc1ccnc(SCc2ccc3ccccc3c2)n1"
Reply: high

Ask: Categorize the following entry: "Clc1cc(N2CCCC2)nc(SCc2ccccc2)n1"
Reply: mid

Ask: Categorize the following entry: "Clc1cc(Cl)nc(SCc2ccc3ccccc3c2)n1"
Reply: mid

Ask: Categorize the following entry: "COC(=O)/C=C/CSc1nc(N)cc(Cl)n1"
Reply: high

Ask: Categorize the following entry: "Nc1cc(Cl)nc(SCc2cccc(Cl)c2)n1"
Reply: high

Ask: Categorize the following entry: Nc1cc(Cl)nc([S+]([O-])Cc2ccc3ccccc3c2)n1 (centres undefined)
Reply: high

Ask: Categorize the following entry: "Cc1cc(N)nc(SCc2ccccc2)n1"
Reply: low

Ask: Categorize the following entry: "Nc1cc(Cl)nc(SCc2cccc(I)c2)n1"
Reply: high

Data credit: ChEMBL document CHEMBL1131117
